# protocol.summary: yeast display, Sf9 membrane polyspecificity reagent, FACS + sequencing; frameworks hold sequencing errors
observed.property: polyreactivity (PSR sort gate)

QVQHVESGGGLVQAGRSLRLSCAASGFTIVQYAMGWYRQAPGKERELVARISPIGGSTYYADSVKGRFTISRDNAKNTVYLQMNSLKPEDTAVYYCNALRGPVKYYYWGQGTQVTVSS :: low polyreactivity
QVQLVESGRGLVQAGGSLRLSCAASGSTFGGYAMGWNRPAPGKERELVAAISIEGGSTYYAESVKGRFTISRDNAKNTVYLQMNSLKPEDTAVYYCNADEYYYGYNYWGQATQVTVSS :: low polyreactivity

---

# protocol.summary: yeast display, Sf9 membrane polyspecificity reagent, FACS + sequencing; frameworks hold sequencing errors
observed.property: polyreactivity (PSR sort gate)

Check out these entries, answers already filled in.
QVQLVESGGGLVQAGGSLRLSCAASGRTFPGYGMGWYRQAPGKERELVAVITSNGGITYYADSVKGRFTISRDNAKNTVYLQMNSLKPEDTAVYYCAAYEIYYEFDSWGQGTQVTVSS :: low polyreactivity
QVQLVESGGGLVQAGGSLRLSCAASGYIFRLYAMGWYRQAPGKERELVATITASGGTYYADSVKGRFTISRDNAKNTVYLQMNSLKPEDTAVYYCAAAKLRRLSRVRYGYWGQGTQVTVSS :: high polyreactivity
QVQLVESGGGLVQAGGSLRLSCAASGRTFYAYAMGWYRQAPGKERELVAVITRSGGRTNYADSVKGRFTISRDNAKNTVYLQMNSLKPEDTAVYYCAARADWRQVSFYYWGQGTQVTVSS :: high polyreactivity
QVQLVESGGGLVQAGGSLRLSCASSGSTFDINAMGWYTQAPGKARELVAAITCGGGTNYADSVKGRFTISRDNAKNTVYLEMNSLKPEDTAVYYCAAVYYSTDYYFWYDYWGQGTQVTVSS :: low polyreactivity
QVQLVESGGGLVQAGGSLRLSCAASGRISYGYVMGWYRQAPGKERELVAAISRTGGNTYYADSVKGRFTISRDNAKNTVYLQMNSLKPEDTAVYYCAKVYKTGITQYDYWGQGTQVTVSS :: high polyreactivity

The recorded polyreactivity (PSR sort gate) for entry QVQLVESGGGLVQAGGSLRLSCAASGGIFYTNAMGWYRQAPGKERELVAAISRSGGSTYYADSVKGRFTISRDNAKNTVYLQMNSLKPEDTAVYYCAARVYVYGYSYDYWGQGTQVTVSS equals high polyreactivity

The recorded polyreactivity (PSR sort gate) for entry QVQLVESGGGLVQAGGSLRLSCAASGRTFYIYAMGWYRQAPGTERELVAAITGCGGSTYYADSVKGRFTISRDNAKNTVYLQMNSLKPEDTAVYYCAAGFYGDGYTQGYGYWGQGTQVTVSS equals low polyreactivity
